Listed compounds paired with reported IC50
biological target: L-SIGN ECD (Homo sapiens, UniProt Q9H2X3); construct: towards the extra cellular domain (ECD) of the DC-SIGN and L-SIGN receptors; experiment: SPR competition experiments on a sensorchip functionalized with SARS-CoV-2 Spike protein, L-SIGN ECD co-injected; settings: 20 μM L-SIGN ECD co-injected, Spike HexaPro surface, 25° C.; read-out: IC50 (inhibition of L-SIGN)
Sequence (Q9H2X3 71-399 limits assumed): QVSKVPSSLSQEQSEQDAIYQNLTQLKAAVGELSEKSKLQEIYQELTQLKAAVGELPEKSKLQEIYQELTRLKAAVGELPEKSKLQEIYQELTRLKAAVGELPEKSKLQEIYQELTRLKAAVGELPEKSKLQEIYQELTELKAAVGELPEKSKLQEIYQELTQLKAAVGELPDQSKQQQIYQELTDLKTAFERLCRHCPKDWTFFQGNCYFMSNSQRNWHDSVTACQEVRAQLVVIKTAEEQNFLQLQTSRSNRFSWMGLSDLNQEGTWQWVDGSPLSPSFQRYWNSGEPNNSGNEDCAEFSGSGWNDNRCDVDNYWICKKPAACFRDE
Field: numeric (µM). Do not append units.

# annotated cases, reported IC50 shown
compound	IC50 / µM
OCC1O[C@H](OCCCl)C(n2cc(CNc3ncc[nH]3)nn2)C(O)[C@@H]1O (stereo partly shown) [Compound 119]	18
OCC1O[C@H](OCCCl)C(n2cc(CNc3nc4ccccc4[nH]3)nn2)C(O)[C@@H]1O (stereo partly shown)	48
OCC1O[C@H](OCCCl)C(n2cc(CNc3ncc[nH]3)nn2)C(O)[C@@H]1O (stereo partly shown) [Compound 115]	15

Moving on to another compound below.
Documented IC50 of OCC1O[C@H](OCCCl)C(n2cc(CNC3=NCCCN3)nn2)C(O)[C@@H]1O (stereo partly shown) : 12

* * *

molecular target: L-SIGN ECD (Homo sapiens, UniProt Q9H2X3); construct: towards the extra cellular domain (ECD) of the DC-SIGN and L-SIGN receptors; test: SPR competition experiments on a sensorchip functionalized with SARS-CoV-2 Spike protein, L-SIGN ECD co-injected; settings: 20 μM L-SIGN ECD co-injected, Spike HexaPro surface, 25° C.; read-out: IC50 (inhibition of L-SIGN)
reported.endpoint: IC50 (µM)
Value expressed in µM; do not type the unit.

molecule	test.target	unit.annotation	recorded.measurement
N=C(N)NCc1cn([C@H]2C(OCCCl)OC(CO)[C@@H](O)[C@@H]2O)nn1 (stereo partly shown) [Compound 106a]	L-SIGN ECD (Homo sapiens, UniProt Q9H2X3)	µM	24

Lab note: measured IC50 of O=C[C@@H](O)[C@@H](O)[C@H](O)[C@H](O)CO [D-mannose, reference compound] was 1940

GET /value?item= NCc1cn(C2C(OCCCl)OC(CO)C(O)C2O)nn1 (stereo not shown) [Compound 103, reference compound] &field=IC50 returns 278

// field: IC50; key: COc1ccc2[nH]c(NCc3cn(C4C(O)[C@H](O)C(CO)O[C@@H]4OCCCl)nn3)nc2c1 (stereo partly shown) ; value = 52
